# Protocol text: In Vitro Microsome Stability Assay (rat)
# Format: in vitro ADME
# Condition context: rat liver microsomes, 30 min w/ NADPH
Assay metric: Liver Microsome Stability-% Left after 30 min w/ NADPH (%) Rat

1 = C[C@H]1CN(S(=O)(=O)c2ccc(C(=O)N(C)C)cc2)CCCN(CC2CCCCC2)CCCN(S(=O)(=O)N2CCc3cc(Cl)ccc3C2)C1
2 = CN(C)c1ccc(S(=O)(=O)N2CCCCN(S(=O)(=O)N3CCC(c4ccccc4)CC3)CCCN(CC3CCCCC3)CCC2)cc1
Prompt: # query: argmin of Liver Microsome Stability-% Left after 30 min w/ NADPH (%) Rat over 1 and 2 Return value: the label identifying the chosen record.
Response: 1

1 = COc1ccccc1N1CCN(S(=O)(=O)N2CCCN(CC3CCCCC3)CCCN(S(=O)(=O)c3ccc(N(C)C)cc3)C[C@H](C)C2)CC1
2 = C[C@H]1CN(S(=O)(=O)c2ccc(N(C)C)cc2)CCCN(CC2CCCCC2)CCCN(S(=O)(=O)N2CC(c3ccccc3)C2)C1
Prompt: # query: argmin of Liver Microsome Stability-% Left after 30 min w/ NADPH (%) Rat over 1 and 2 Return value: the label identifying the chosen record.
Response: 1
(1: 12.3%, 2: 25.4%)

The origin of these recorded values is patent US11578055B2.
